Parameter IC50, tested on full-length JMJD5 (aa 1–416, JMJD5^FL) (Homo sapiens, UniProt Q8N371), listed per item.
Sequence (Q8N371 whole entry, the tested form may be a part): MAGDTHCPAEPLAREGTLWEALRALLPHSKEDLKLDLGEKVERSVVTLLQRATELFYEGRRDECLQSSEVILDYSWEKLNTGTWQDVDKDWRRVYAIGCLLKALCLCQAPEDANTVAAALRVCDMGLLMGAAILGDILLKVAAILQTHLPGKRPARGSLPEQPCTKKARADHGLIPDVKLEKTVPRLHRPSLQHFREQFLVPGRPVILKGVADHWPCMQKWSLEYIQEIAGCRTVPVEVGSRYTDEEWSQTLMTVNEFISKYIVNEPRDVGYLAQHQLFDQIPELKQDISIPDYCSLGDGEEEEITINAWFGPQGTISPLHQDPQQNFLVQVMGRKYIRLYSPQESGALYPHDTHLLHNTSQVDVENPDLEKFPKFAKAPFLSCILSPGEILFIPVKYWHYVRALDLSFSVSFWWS
Numbers only, in µM.

{"MOLECULE": "O=C(O)CC[C@@H](O)C(=O)O [D-2HG, D-2-hydroxyglutarate]", "UNIT DESCRIPTOR": "µM", "IC50": 1270}

Report IC50 for every entry below.
1. O=C(O)CNC(=O)c1ncc(-c2cccc(F)c2)cc1O
2. O=C(O)CCNc1cc(N2CCc3ccccc3CC2)nc(-c2ccccn2)n1
3. Cc1nc(C(=O)NCC(=O)O)c(O)c2ccc(Oc3ccccc3)cc12
4. O=C(O)CNC(=O)C(=O)O
5. O=C(O)CC(O)(CC(=O)O)C(=O)O [Citrate]
6. O=C(O)c1ccnc(-c2cc(C(=O)O)ccn2)c1 [2.4-BPDCA, bipyridinyl-2,4-dicarboxylate]
7. O=C(O)c1ccc(O)c2ncccc12 [IOX1, 5-carboxy-8-hydroxyquinoline]

1: 288; 2: 67; 3: 239; 4: 6; 5: 820; 6: 66; 7: 96

Report IC50 for every entry below.
1. O=C(O)CC(=O)C(=O)O [Oxaloacetate]
2. O=C(O)CC(O)C(=O)O (stereo not shown) [Malate]

85
1600

====

Assign pIC50 to each entry below.
ASSAY SYSTEM: full-length JMJD5 (aa 1–416, JMJD5^FL) (Homo sapiens)
One number for each entry, as −log10 of the molar value.

{"COMPOUND": "CN(C)CCCNC(=O)c1ccc(-c2cc(O)c3ncccc3c2)cc1 [ML-324]", "MEASURED ATTRIBUTE": "pIC50", "READOUT NUMBER": 4.82}
{"COMPOUND": "O=C(O)CCC(=O)O [Succinate]", "MEASURED ATTRIBUTE": "pIC50", "READOUT NUMBER": 3.08}
{"COMPOUND": "CC(=O)C(=O)O [Pyruvate]", "MEASURED ATTRIBUTE": "pIC50", "READOUT NUMBER": 3.30}

Report pIC50 for every entry below.
1. O=C(O)CC[C@H](O)C(=O)O [L-2HG, L-2-hydroxyglutarate]
2. CCN(CCN(C)C)C(=O)CNCc1cc(C(=O)O)ccn1 [KDM5-C49]

1: 3.47; 2: 3.21
